Where do the numbers come from? From PubChem BioAssay (NCATS).

# Target under test: Thyrotropin-releasing hormone receptor (Homo sapiens)
# Assay: qHTS for Small Molecule Agonists and Allosteric Enhancers of Human TRH Receptor: Validation Screen for Agonists (AID 493127);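 note: intracellular calcium rise by fluo-8 fluorescence before TRH EC20 addition; 0% is about no effect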
# Run conditions: TRH receptor agonist cell assay; at 2 µM; stronger effect = higher value
# Protocol: NIH Chemical Genomics Center [NCGC] NIH Molecular Libraries Probe Centers Network [MLPCN] Assay Submitter (PI): Marvin Gershengorn […] For the HTS assay freshly prepared cells are plated at a density of 2000/well in 3 ul of complete DMEM medium containing 10% serum in 1536-well plates and cultured over night at 37 C in a humidified incubator with 5% CO2. […] For the assay, assay plates were loaded into the FDSS kinetic plate reader. […]
For each of the compounds below, state its activation.
Numbers only, in %.

Compound	Target under test	activation [%]
CC(=O)SC1CC2=CC(=O)CC[C@]2(C)C2CC[C@@]3(C)[C@@H](CC[C@@]34CCC(=O)O4)C12 (some centres not stated)	Thyrotropin-releasing hormone receptor (Homo sapiens)	1.19
COc1cc2c(cc1O)CCC1C2CC[C@]2(C)[C@@H](O)CC[C@@H]12 (some centres not stated)	Thyrotropin-releasing hormone receptor (Homo sapiens)	1
N#CC(Cc1ccc(O)c(O)c1)C(=O)N1CCc2ccccc21 (configuration not stated)	Thyrotropin-releasing hormone receptor (Homo sapiens)	3.94
CC[C@H](C)C(=O)O[C@H]1CCC=C2C=C[C@H](C)[C@H](CC[C@@H]3C[C@H](O)CC(=O)O3)C21 (some centres not stated)	Thyrotropin-releasing hormone receptor (Homo sapiens)	-5
Cc1cc(N)c2ccccc2[n+]1CCCCCCCCCCCCCC[n+]1c(C)cc(N)c2ccccc21	Thyrotropin-releasing hormone receptor (Homo sapiens)	-0.125
C#C[C@]1(O)CC[C@H]2C3CCC4=Cc5oncc5CC4(C)C3CCC21C (some centres not stated)	Thyrotropin-releasing hormone receptor (Homo sapiens)	1.44
N#Cc1c(-c2ccccc2)no[n+]1[O-]	Thyrotropin-releasing hormone receptor (Homo sapiens)	0.688
Nc1nc(Cl)nc2c1ncn2[C@@H]1O[C@H](CO)[C@H](O)[C@H]1O	Thyrotropin-releasing hormone receptor (Homo sapiens)	1.31

Would you mind giving activation for every compound in the list below?
1. O=S(=O)(O)C1CCNCC1
2. C[C@H]1c2cccc(O)c2C(O)=C2C(=O)[C@]3(O)C(O)=C(C(N)=O)C(=O)C(N(C)C)[C@@H]3[C@@H](O)C21 (some centres not stated)
3. CCCCN1CCC(COC(=O)c2cc(Cl)c(N)c3c2OCCO3)CC1
4. Nc1nc(Cl)nc2c1ncn2[C@@H]1O[C@H](COP(=O)(O)OP(=O)(O)OP(=O)(O)O)[C@H](O)[C@H]1O

Result:
[0.125, -0.125, 1.19, 6.94]

====

# Target under test: Rap guanine nucleotide exchange factor 4 (Homo sapiens) (UniProt Q8WZA2)
# Sequence (Q8WZA2 whole entry, looked up): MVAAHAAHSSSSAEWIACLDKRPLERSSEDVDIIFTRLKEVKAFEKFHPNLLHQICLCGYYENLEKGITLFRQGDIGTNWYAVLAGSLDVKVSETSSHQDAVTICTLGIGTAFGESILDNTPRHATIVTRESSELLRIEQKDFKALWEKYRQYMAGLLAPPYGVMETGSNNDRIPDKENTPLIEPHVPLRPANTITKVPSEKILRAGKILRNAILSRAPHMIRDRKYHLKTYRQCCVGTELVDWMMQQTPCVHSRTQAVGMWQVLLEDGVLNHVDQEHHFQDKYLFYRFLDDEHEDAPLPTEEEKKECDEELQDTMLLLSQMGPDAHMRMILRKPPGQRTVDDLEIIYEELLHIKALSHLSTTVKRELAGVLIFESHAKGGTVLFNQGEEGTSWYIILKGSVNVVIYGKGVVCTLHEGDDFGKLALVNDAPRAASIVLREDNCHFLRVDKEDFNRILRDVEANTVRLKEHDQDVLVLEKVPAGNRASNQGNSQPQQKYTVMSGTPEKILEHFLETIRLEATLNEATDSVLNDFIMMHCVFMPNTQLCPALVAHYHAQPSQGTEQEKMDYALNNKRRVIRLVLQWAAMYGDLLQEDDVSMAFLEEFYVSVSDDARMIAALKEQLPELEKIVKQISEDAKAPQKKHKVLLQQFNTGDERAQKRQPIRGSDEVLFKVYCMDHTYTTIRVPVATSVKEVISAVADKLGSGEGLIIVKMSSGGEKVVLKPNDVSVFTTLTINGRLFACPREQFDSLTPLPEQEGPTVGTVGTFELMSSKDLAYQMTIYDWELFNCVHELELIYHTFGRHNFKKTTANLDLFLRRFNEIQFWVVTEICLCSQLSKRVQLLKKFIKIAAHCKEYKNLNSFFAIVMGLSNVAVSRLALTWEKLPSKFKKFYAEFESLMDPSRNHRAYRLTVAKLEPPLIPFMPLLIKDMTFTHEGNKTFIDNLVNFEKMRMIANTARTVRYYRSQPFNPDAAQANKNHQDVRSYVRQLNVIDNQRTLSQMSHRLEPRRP
# Assay: Confirmatory qHTS for agonist of cAMP-regulated guanine nucleotide exchange factor 4 (EPAC2) (AID 1645884);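 note: nucleotide exchange releases bodipy-GDP from Rap1 and this lowers its fluorescence; % is set by controls: 0 for no effect and ±100 for the full control effect; nearly all actives have a fitted effect of over 65% in size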
# Run conditions: EPAC2 GEF activity, Rap1B-BODIPY-GDP fluorescence; series mostly up to 154 µM
Results filed as inconclusive are left out. Active and inactive are the calls of the source. Calls come from the whole dose curve; as a rule, active = well fitted activation curve with a large enough effect; inconclusive = small, poorly fitted or top-dose-only effect; inactive = no such curve, though single readings can be large or run the other way.
Metric: activation

Cc1c([N+](=O)[O-])cnc(Sc2ccccc2)c1[N+](=O)[O-] inactive
O=C(O)Cc1ccc(N=Nc2c(O)c(C(=O)O)cc3ccccc23)cc1 inactive

====

For each of the molecules below, state its activity.
# Target under test: Catechol O-methyltransferase (Homo sapiens)
# Assay: Confirmatory Screen for Target Class Profiling of Small Molecule Inhibitors of Methyltransferases (AID 1745852)
# Run conditions: MTase-Glo luminescence, SAH detection, recombinant enzyme; measured here: COMT max response; stronger effect = lower value
Give bare numbers, in %.

The examples below pair each entry with its known result.
Molecule	Measurement unit	Reported result
COc1ccc(-c2cc3c(cn2)CN(CCc2ccccc2)CCN3)cc1OC	%	-0.529
CCCCNC(=O)c1cccc(-c2cc(N3CCN(C)CC3)nc(N)n2)c1	%	-2.86
COc1ccc(CCNC(=O)c2ccc3c(=O)nc4c(-c5cccc(F)c5)n[nH]n4c3c2)cc1OC	%	-16
COc1ccc(CN2C(=O)c3cc4sccc4n3CC2(C)C(=O)NC2CCC(C)CC2)cc1OC (stereo not given)	%	-5.8
CN(C)c1nc2c(c(N3C[C@@H](CN4CCCC4)[C@@H](CO)C3)n1)CCCC2	%	4.35

Would you mind giving activity for every molecule in the list below?
1. CCc1ccc(NS(=O)(=O)c2ccc3c(c2)n(C)c(=O)n3C)cc1
2. O=[S+]1([O-])NC2(CCCN(Cc3c(F)cccc3Cl)C2)COc2ccccc21 (stereo not given)
3. Cc1cc(NS(=O)(=O)c2ccc3[nH]c(=O)[nH]c3c2)ccc1Br

Result:
1. 4.08
2. -6.32
3. 1.24

Would you mind giving activity for every molecule in the list below?
1. O=C(Nc1ccc2ncnc(N3CCCCC3)c2c1)c1cc(F)ccc1F
2. CC(C)CCN1CC2(CCCN(C(=O)c3ccn(C)c(=O)c3)C2)CCC1=O (stereo not given)

Result:
1: -70.5; 2: 5.04

====

For each of the compounds below, state its activity.
# Target under test: Phenylethanolamine N-methyltransferase (Homo sapiens)
# Assay: Confirmatory Screen for Target Class Profiling of Small Molecule Inhibitors of Methyltransferases (AID 1745852)
# Run conditions: MTase-Glo luminescence, SAH detection, recombinant enzyme; measured here: PNMT max response; stronger effect = lower value
Answers are plain numbers, in %.

Compound	activity [%]
COc1cc2nc(N3CCCCC3)nc(NC3CCN(C)CC3)c2cc1OC	-7.42

Would you mind giving activity for every compound in the list below?
1. Cn1cc(CN2CCCC(COc3ccccc3C(=O)N3CCCCC3)C2)c2ccccc21 (centres undefined)
2. Cn1c(=O)c2ccnn2c2ccc(C(=O)NCC3CCN(Cc4ccccc4F)CC3)cc21
3. O=c1c2ccccc2n2c(-c3cc(Cl)ccc3O)nnc2n1Cc1ccc(F)cc1
4. CCn1cc(CN2CCCC23CCN(c2cc(C)nc4ccccc24)CC3)c(C)n1
5. COc1ccc(CCN2C(=O)c3cc4occc4n3CC2(C)C(=O)NC2CCCCCC2)cc1OC (centres undefined)

Result:
1: 3.6; 2: 2.1; 3: -27.8; 4: 6.12; 5: -5.31

Would you mind giving activity for every compound in the list below?
1. CC(C)CCn1c(=O)c2ccccc2n2c(CCC(=O)N3CCN(c4ccc(F)cc4)CC3)nnc12
2. c1ccc(CN2CCc3c(sc4ncnc(N5CCOCC5)c34)C2)cc1
3. CN1C(=O)C(c2ccccc2)CC12CCN(c1ccnc(N)n1)CC2 (centres undefined)

Result:
1. -6.79
2. -7.28
3. 10.4

Would you mind giving activity for every compound in the list below?
1. Cn1cnc(CN2CCNc3cc(Nc4ccccc4)ncc3C2)c1
2. O=C(NCc1cccc(Cl)c1)c1cnc2c(c1)N(C(=O)Cc1ccc(O)cc1)CCC2

Result:
[-5.41, -1]

Would you mind giving activity for every compound in the list below?
1. CCCn1c(=O)c2ccccc2n2c(=O)n(CC(=O)c3cc(C)ccc3C)nc12
2. COc1ccc(OC)c2c1cc1n2CC(C)(C(=O)NC2CCCCC2C)N(Cc2ccco2)C1=O (centres undefined)
3. COc1cc2nc(N3CCCCC3)nc(NC3CCN(Cc4ccccc4)CC3)c2cc1OC

Result:
1: -0.0841; 2: -10.3; 3: 1.57

====

For each of the molecules below, state its activity.
# Target under test: Phenylethanolamine N-methyltransferase (Homo sapiens) (UniProt P11086)
# Sequence (P11086 whole entry, looked up): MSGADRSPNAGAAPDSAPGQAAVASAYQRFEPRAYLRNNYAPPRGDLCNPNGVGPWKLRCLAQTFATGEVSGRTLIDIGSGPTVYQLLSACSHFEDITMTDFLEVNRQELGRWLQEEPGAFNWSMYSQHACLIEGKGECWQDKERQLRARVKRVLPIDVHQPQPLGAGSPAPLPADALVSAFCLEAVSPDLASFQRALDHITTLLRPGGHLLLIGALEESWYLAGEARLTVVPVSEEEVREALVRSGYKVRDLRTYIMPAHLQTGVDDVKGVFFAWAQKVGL
# Assay: Confirmatory Screen for Target Class Profiling of Small Molecule Inhibitors of Methyltransferases (AID 1745852)
# Run conditions: MTase-Glo luminescence, SAH detection, recombinant enzyme; measured here: PNMT max response; stronger effect = lower value
Answers are plain numbers, in %.

The examples below pair each entry with its known result.
Molecule	activity (%)
CN(C)CC1(O)CCC2(CCN(C(=O)c3cccn3C)CC2)CC1	9.04
COC(=O)c1cc2n(n1)CC(C)(C(=O)NC1CCC(C)CC1)N(Cc1ccc(OC)cc1OC)C2=O (stereo not given)	-13.3
CCN(CC)CCNC(=O)CCc1nnc2n(Cc3ccccc3Cl)c(=O)c3ccccc3n12	2.62
CC(C)NC(=O)c1ccccc1OCC1CCCN(Cc2cn(C)c3ccccc23)C1 (stereo not given)	10.4
CC1=C[C@@H](CN(CC2CC2)CC2CC2)[C@H](C(C)C)C[C@H]1Cc1nc2ccncc2[nH]1	3.65
O=C(Nc1ccc2ncnc(N3CCCCC3)c2c1)c1cc(F)ccc1F	-80.3

Would you mind giving activity for every molecule in the list below?
1. COc1cccc(-c2cccc(C(=O)N3C[C@H](CO)C[C@H](CN(C)C)C3)c2)c1
2. Cc1ccc(NC(=O)CSc2nnc3n(CC(C)C)c(=O)c4ccccc4n23)cc1
3. COc1cccc(NC(=O)Cn2c(=O)oc3cc(S(=O)(=O)N4CCCCC4C)ccc32)c1 (stereo not given)

Result:
1. 4.94
2. -2.78
3. -70.8

Would you mind giving activity for every molecule in the list below?
1. CCOCCCN1C(=O)c2cc3c(OC)ccc(OC)c3n2CC1(C)C(=O)NC1CCCCC1 (stereo not given)
2. CCN(CC)CCNC(=O)CCCc1nnc2n3nc(-c4ccccc4)nc3c3ccccc3n12
3. COc1ccccc1CC(=O)N1CCCc2ncc(C(=O)Nc3cccc(Cl)c3)cc21
4. Cc1cnc(CCNC(=O)Nc2ccc3c(c2)OCCO3)n1C1CCC1

Result:
-10.4
-1.77
3.39
1.37
